# System: Saccharomyces cerevisiae BY4741 SeMeCo community
# procedure.summary: z-score of subpopulation abundance vs DMSO median, subpopulation auxotrophic for HU; higher = larger share of this subpopulation than in DMSO controls
# condition.summary: 10 µM; 24 h; SM minimal medium; subpopulation (auxotrophy): HU
So basically: z-score of subpopulation abundance at 1 or higher? That is met. Lower than 1? That is not met.

These recorded examples may help you get a feel for the data.
Fc1ccc(C(c2ccc(F)cc2)N2CCN(C/C=C/c3ccccc3)CC2)cc1 [Flunarizine 2HCl] :: not met
CC(=O)C1C(=O)C=C(C)OC1=O (configuration not stated) [Sodium dehydroacetate] :: not met
CCCCCCCCCCCCCCCCOP(=O)([O-])OCC[N+](C)(C)C :: met
CCCCCCCCCCCC(=O)O :: not met
COc1cc2c(cc1OC)C(=O)C(CC1CCN(Cc3ccccc3)CC1)C2 (configuration not stated) [Donepezil] :: not met
Nc1ccc(S(=O)(=O)Nc2cnc3ccccc3n2)cc1 [Sulfaquinoxaline sodium] :: met

# next compound below
In: Test whether the compound CO[C@H]1C[C@@H]2CC[C@@H](C)[C@@](O)(O2)C(=O)C(=O)N2CCCC[C@H]2C(=O)O[C@H]([C@H](C)C[C@@H]2CC[C@@H](OC(=O)C(C)(CO)CO)[C@H](OC)C2)CC(=O)[C@H](C)/C=C(\C)[C@@H](O)[C@@H](OC)C(=O)[C@H](C)C[C@H](C)/C=C/C=C/C=C/1C records z-score of subpopulation abundance of 1 or higher.
Out: met

---

Readings of z-score of subpopulation abundance for the listed compounds
# Tested on: Saccharomyces cerevisiae BY4741 SeMeCo community
# procedure.summary: z-score of subpopulation abundance vs DMSO median, subpopulation auxotrophic for LM; higher = larger share of this subpopulation than in DMSO controls
# condition.summary: 10 µM; 24 h; SM minimal medium; subpopulation (auxotrophy): LM
Number, no unit, nothing else.

COCCCN1CCC(NC(=O)c2cc(Cl)c(N)c3c2OCC3)CC1 [Prucalopride] :: -0.04
CCOc1ccc(NC(C)=O)cc1 :: -1.19

In: Item C=CC[N+]1([C@H]2C[C@H]3[C@@H]4CC[C@H]5C[C@H](O)[C@@H](N6CCOCC6)C[C@]5(C)[C@H]4CC[C@]3(C)[C@H]2OC(C)=O)CCCC1 [Rocuronium Bromide] : provide z-score of subpopulation abundance
Out: -0.17

---

# Test system: Saccharomyces cerevisiae BY4741 SeMeCo community
# procedure.summary: z-score of subpopulation abundance vs DMSO median, subpopulation auxotrophic for HL; higher = larger share of this subpopulation than in DMSO controls
# condition.summary: 10 µM; 24 h; SM minimal medium; subpopulation (auxotrophy): HL
Structures can show the parent of a compound that is named as a salt.
quantity.name: z-score of subpopulation abundance
Number, no unit, nothing else.

Reference set (2 entries):
Cc1cccc(C)c1NC(=O)C1CCCCN1C (stereo not given) [Mepivacaine] :: -0.24
CCNC(=O)[C@@H]1CCCN1C(=O)[C@H](CCCNC(=N)N)NC(=O)[C@H](CC(C)C)NC(=O)[C@@H](CC(C)C)NC(=O)[C@H](Cc1ccc(O)cc1)NC(=O)[C@H](CO)NC(=O)[C@H](Cc1c[nH]c2ccccc12)NC(=O)[C@H](Cc1c[nH]cn1)NC(=O)[C@@H]1CCC(=O)N1 [Leuprolide Acetate] :: 0.14

In: // fetch z-score of subpopulation abundance for O=C1c2cccc3c2[C@H](CCC3)CN1[C@@H]1CN2CCC1CC2 [Palonosetron] ; system: Saccharomyces cerevisiae BY4741 SeMeCo community
Out: -0.45

In: // fetch z-score of subpopulation abundance for Cc1onc(-c2ccccc2)c1-c1ccc(S(N)(=O)=O)cc1 [Valdecoxib] ; system: Saccharomyces cerevisiae BY4741 SeMeCo community
Out: -0.64

In: // fetch z-score of subpopulation abundance for CCC[C@@H]1C[C@@H](C(=O)N[C@@H]([C@H]2O[C@H](SC)[C@H](O)[C@@H](O)[C@H]2O)[C@@H](C)O)N(C)C1 [Lincomycin Hydrochloride Monohydrate] ; system: Saccharomyces cerevisiae BY4741 SeMeCo community
Out: -0.46

---

Readings of z-score of subpopulation abundance for the listed compounds
# Tested on: Saccharomyces cerevisiae BY4741 SeMeCo community
# procedure.summary: z-score of subpopulation abundance vs DMSO median, subpopulation auxotrophic for U; higher = larger share of this subpopulation than in DMSO controls
# condition.summary: 10 µM; 24 h; SM minimal medium; subpopulation (auxotrophy): U
Where a name gives a salt, the structure may show the parent alone.
Number, no unit, nothing else.

Reference set (5 entries):
CC(=O)OCC(CCn1cnc2cnc(N)nc21)COC(C)=O :: -0.77
Cc1c(-c2ccccc2)oc2c(C(=O)OCCN3CCCCC3)cccc2c1=O [Flavoxate HCl] :: 0.96
Fc1ccc(C(c2ccc(F)cc2)N2CCN(C/C=C/c3ccccc3)CC2)cc1 [Flunarizine 2HCl] :: -0.07
NC(=O)OCC(COC(N)=O)c1ccccc1 [Felbamate] :: -0.1
COc1cc(NS(=O)(=O)c2ccc(N)cc2)ncn1 :: 1.19

In: Item OC(CCCN1CCCCC1)(c1ccccc1)c1ccccc1 [Diphenidol HCl] : provide z-score of subpopulation abundance
Out: 0.63

In: Item CCC(C)(C)C(=O)O[C@H]1C[C@@H](C)C=C2C=C[C@H](C)[C@H](CC[C@@H]3C[C@@H](O)CC(=O)O3)[C@H]21 : provide z-score of subpopulation abundance
Out: 0.43

In: Item CC1(C)S[C@@H]2[C@H](NC(=O)[C@H](N)c3ccccc3)C(=O)N2[C@H]1C(=O)OCOC(=O)[C@@H]1N2C(=O)C[C@H]2S(=O)(=O)C1(C)C [Sultamicillin Tosylate] : provide z-score of subpopulation abundance
Out: 0.67

In: Item CCOc1ccc2nc3cc(N)ccc3c(N)c2c1 [Ethacridine lactate monohydrate] : provide z-score of subpopulation abundance
Out: -8.13

In: Item CN1CCC(=C2c3ccccc3CCc3sccc32)CC1 [Pizotifen Malate] : provide z-score of subpopulation abundance
Out: -0.76

In: Item Cc1cc2c(s1)Nc1ccccc1N=C2N1CCN(C)CC1 : provide z-score of subpopulation abundance
Out: -0.29

In: Item Cc1onc(-c2c(F)cccc2Cl)c1C(=O)N[C@@H]1C(=O)N2[C@@H]1SC(C)(C)[C@@H]2C(=O)O [Flucloxacillin sodium] : provide z-score of subpopulation abundance
Out: 0.55

In: Item Cc1ccc(Nc2c(F)cccc2Cl)c(CC(=O)O)c1 : provide z-score of subpopulation abundance
Out: -0.66

In: Item CCOC(=O)c1ccc(N)cc1 [Benzocaine] : provide z-score of subpopulation abundance
Out: -1.34

In: Item COc1c(N2C[C@@H]3CCCN[C@@H]3C2)c(F)cc2c(=O)c(C(=O)O)cn(C3CC3)c12 [Moxifloxacin HCl] : provide z-score of subpopulation abundance
Out: -0.98

In: Item CCc1nc(N)nc(N)c1-c1ccc(Cl)cc1 : provide z-score of subpopulation abundance
Out: -0.01

In: Item CCCCN(CCCC)CC(O)c1cc(Cl)cc2c1-c1ccc(Cl)cc1/C2=C/c1ccc(Cl)cc1 (configuration not stated) : provide z-score of subpopulation abundance
Out: 1.6

---

# System: Saccharomyces cerevisiae BY4741 SeMeCo community
# procedure.summary: z-score of subpopulation abundance vs DMSO median, subpopulation auxotrophic for HLU; higher = larger share of this subpopulation than in DMSO controls
# condition.summary: 10 µM; 24 h; SM minimal medium; subpopulation (auxotrophy): HLU
Counter-ions that a name gives are not always drawn.
Readings of z-score of subpopulation abundance for the listed compounds

Reference set (3 entries):
CCCc1nn(C)c2c(=O)[nH]c(-c3cc(S(=O)(=O)N4CCN(C)CC4)ccc3OCC)nc12 [Sildenafil Citrate] :: 0.14
Cc1nc(C)c(Cl)c(O)c1Cl [Clopidol] :: -0.09
NC(=O)N/N=C/c1ccc([N+](=O)[O-])o1 [Nitrofural] :: -1.14

In: // fetch z-score of subpopulation abundance for CCN(CC)CCOCCOC(=O)C1(c2ccccc2)CCCC1 [Pentoxyverine Citrate] ; system: Saccharomyces cerevisiae BY4741 SeMeCo community
Out: -0.39

In: // fetch z-score of subpopulation abundance for Cc1nnc(NS(=O)(=O)c2ccc(N)cc2)s1 [Sulfamethizole] ; system: Saccharomyces cerevisiae BY4741 SeMeCo community
Out: -1.06

In: // fetch z-score of subpopulation abundance for Nc1c(Br)cc(Br)cc1CN[C@H]1CC[C@H](O)CC1 [Ambroxol HCl] ; system: Saccharomyces cerevisiae BY4741 SeMeCo community
Out: -0.39

In: // fetch z-score of subpopulation abundance for CCc1nn(CCCN2CCN(c3cccc(Cl)c3)CC2)c(=O)n1CCOc1ccccc1 [Nefazodone hydrochloride] ; system: Saccharomyces cerevisiae BY4741 SeMeCo community
Out: 0.16

In: // fetch z-score of subpopulation abundance for CCCOc1ccc(C(=O)OCCN(CC)CC)cc1N [Proparacaine HCl] ; system: Saccharomyces cerevisiae BY4741 SeMeCo community
Out: -0.61

In: // fetch z-score of subpopulation abundance for Clc1ccc(C(Cn2ccnc2)OCc2csc3c(Cl)cccc23)c(Cl)c1 (centres undefined) [Sertaconazole nitrate] ; system: Saccharomyces cerevisiae BY4741 SeMeCo community
Out: 11.1
